Tested on: HOP-62
measurement-description: NCI tumour cell line growth inhibition, 48 h
Calls of active or inactive are those of the source. No stated cut-off is given here; in the data, active = GI50 up to about 1.1 µM and inactive = higher.
experimental-endpoint: GI50

Could you report GI50 for every entry in the following list?
1. COc1cc(OC)c(OC)cc1/C=C/c1nc2ccccc2s1
2. COC(=O)c1c(C)[nH]c2c1C(=O)C(=O)c1nc(C)c(C)nc1-2
3. ClCCCSSCCCCl
4. CC1[C@@H]2CC=C3C4CCC5Cc6nc7c(nc6C[C@@]5(C)C4CC(=O)[C@]32CO[C@@]1(O)C(O)CC(C)(C)O)CC1CCC2C3=C[C@H]4O[C@@]5(O[C@@](C)(CO)C[C@@H]5O)C(C)[C@@]4(O)[C@]3(C)[C@@H](O)CC2[C@]1(C)C7 (some centres undefined)

Return:
29.1 µM (inactive)
5.98 µM (inactive)
38.7 µM (inactive)
0.000495 µM (active)

====

System: SF-295
measurement-description: NCI tumour cell line growth inhibition, 48 h
Activity calls are given as the source filed them. Rule as the data show it: active = GI50 up to about 1.1 µM and inactive = higher. Residues, ends and D or L forms follow the SMILES beside them.
Hi there, use one of these labels in your reply, thanks! active, inactive

- compound: "Cc1nn(-c2ccccc2)c2nc3ccc(Cl)cc3c(-c3ccccc3)c12"
  answer-label: "inactive"
- compound: "COc1cc(C(=O)NC2CCc3cc(OC)c(OC)c(OC)c3-c3ccc(OC)c(=O)cc32)cc(OC)c1OC (centres undefined)"
  answer-label: "active"
- compound: "C=C(C)[C@@]1(O)CCCC[C@@H]1CC(Sc1ccccc1)Sc1ccccc1"
  answer-label: "inactive"
- compound: "NC(=O)Cc1nc2c(O)ncnc2n1C1OC(CO)C(O)C1O (centres undefined)"
  answer-label: "inactive"
- compound: "CCOC(=O)C(C(=S)SC)c1nn2c(=O)cc(C)nc2s1 (centres undefined)"
  answer-label: "inactive"

Enquiry: GET /call?item= COC(=O)C(Cc1ccccc1)NP(=O)(O)OCC1OC(n2ccc(N)nc2=O)C(O)C1O (centres undefined) returns the recorded outcome of this test.
Return: inactive

Enquiry: GET /call?item= COc1ccc(C(OCC2OC3(COC(c4ccccc4)(c4ccc(OC)cc4)c4ccc(OC)cc4)C(Oc4nc(=O)ccn43)C2O)(c2ccccc2)c2ccc(OC)cc2)cc1 (centres undefined) returns the recorded outcome of this test.
Return: inactive

Enquiry: GET /call?item= `O=C1CCCCC/C1=C\c1cccc(F)c1` returns the recorded outcome of this test.
Return: inactive

Enquiry: GET /call?item= CCC(C)C(NC(=O)C1CCCN1)C(=O)NC(C(=O)NCC(=O)NC(CC(N)=O)C(=O)NC(CC(C)C)C(=O)NC(CC(C)C)C(=O)NC(CCCCN)C(N)=O)C(C)C (centres undefined) (H-PIVGNLLK-NH2; configuration not given here) returns the recorded outcome of this test.
Return: inactive

====

Give GI50 for every item shown.
Test system: ACHN
measurement-description: NCI tumour cell line growth inhibition, 48 h
Activity calls are given as the source filed them. Rule as the data show it: active = GI50 up to about 1.1 µM and inactive = higher.

Could you report GI50 for every entry in the following list?
1. COC1(OC)C2(Cl)CCC1(Cl)C(OC(C)=O)C2 (stereo not given)
2. O=c1cc(/N=N\c2ccc(Br)cc2)[nH]c(=S)[nH]1
3. CC[C@](O)(C(=O)O)c1cc2n(c(=O)c1CO)Cc1cc3ccccc3nc1-2
4. CCOC(=O)c1nc2ccccc2nc1Nc1ccc(OC)cc1
5. O=C1C[C@@]23CCC4(CC2=CCC[C@H]3O1)OCCO4
6. COc1cc([C@@H]2c3cc4c(cc3[C@@H](Nc3ccc(Cl)cc3C(=O)c3ccccc3)[C@H]3COC(=O)[C@H]23)OCO4)cc(OC)c1OC
7. COC(=O)C1CC2C=CC1N(C(=O)OCc1ccccc1)C2 (stereo not given)

Return:
1: > 100 µM (inactive); 2: 15.9 µM (inactive); 3: 0.0025 µM (active); 4: 32.4 µM (inactive); 5: > 100 µM (inactive); 6: 0.592 µM (active); 7: > 100 µM (inactive)

====

System: OVCAR-5
measurement-description: NCI tumour cell line growth inhibition, 48 h
Calls of active or inactive are those of the source. Cut-off read from the data, not from the text of the source: active = GI50 up to about 1.1 µM and inactive = higher.
Hi there, use one of these labels in your reply, thanks! 1 (active), -1 (inactive)

Solved cases below.
- molecule: "c1ccc(C2CC(NC3CCCCC3)=Nc3ccccc3N2)cc1 (stereo not given)"
  answer-label: -1
- molecule: "O=C(Cn1c(-c2ccccc2)cc2ccccc21)N1CCCC1"
  answer-label: -1
- molecule: "COC1CC(OC)C2OC(c3ccccc3)OCC2O1 (stereo not given)"
  answer-label: -1

Enquiry: GET /call?item= O=C1CC(CC(OCc2ccccc2)C(COCc2ccccc2)OCc2ccccc2)CC(=O)N1 (stereo not given) returns the recorded outcome of this test.
Return: -1

Enquiry: GET /call?item= `COc1cc(C(=O)O)c([N+](=O)[O-])c(OC)c1OC` returns the recorded outcome of this test.
Return: -1

Enquiry: GET /call?item= `O=C1CC(=O)N(CCc2ccccc2)S(=O)(=O)N1CCc1ccccc1` returns the recorded outcome of this test.
Return: -1

Enquiry: GET /call?item= COC(C)(C)C(O)C(O)C[C@H](C)C1CC=C2C1(C)CCC1[C@@]3(C)CCC(OC(C)=O)C(C)(C)C3CC(OC3OC(COC(C)=O)C(O)C(O)C3O)[C@@]21C (stereo not given in full) returns the recorded outcome of this test.
Return: -1

Enquiry: GET /call?item= `Oc1c2cc(Cl)cc1COCc1cc(Cl)cc(c1O)COCc1cc(Cl)cc(c1O)COC2` returns the recorded outcome of this test.
Return: -1

Enquiry: GET /call?item= COc1ccc(C(OCC2OC3(COC(c4ccccc4)(c4ccc(OC)cc4)c4ccc(OC)cc4)C(Oc4nc(=O)ccn43)C2O)(c2ccccc2)c2ccc(OC)cc2)cc1 (stereo not given) returns the recorded outcome of this test.
Return: -1

Enquiry: GET /call?item= `O=C1c2cccnc2-c2nccc3c2c1nc1cc(Br)ccc13` returns the recorded outcome of this test.
Return: 1

====

Give GI50 for every item shown.
System: PC-3
measurement-description: NCI tumour cell line growth inhibition, 48 h
Activity calls are given as the source filed them. No stated cut-off is given here; in the data, active = GI50 up to about 1.1 µM and inactive = higher.

- compound: "CCOC(=O)C(C(=S)SC)c1nn2c(=O)cc(C)nc2s1 (stereo not given)"
  assay-system: "PC-3"
  GI50: "20.9 µM (inactive)"
- compound: "CCOC(=O)CCc1ccc(NC(=O)/C=C/c2ccc([N+](=O)[O-])o2)cc1"
  assay-system: "PC-3"
  GI50: "3.03 µM (inactive)"
- compound: "Cc1cc(-c2nc3cccc(F)c3s2)ccc1N"
  assay-system: "PC-3"
  GI50: "> 65.8 µM (inactive)"
- compound: "Cc1ccc(C2SCC(=O)N2NC(=O)c2ccncc2)s1 (stereo not given)"
  assay-system: "PC-3"
  GI50: "> 100 µM (inactive)"
- compound: "O=C1OC2C=CCC1C2 (stereo not given)"
  assay-system: "PC-3"
  GI50: "> 100 µM (inactive)"
- compound: "COc1cccc(Nc2n[nH]c(NS(=O)(=O)c3cc(C)c(Cl)cc3S)n2)c1"
  assay-system: "PC-3"
  GI50: "> 100 µM (inactive)"

Could you report GI50 for every entry in the following list?
1. CCN1CCC(O)(/C=C/c2ccc(C)cc2)C(C(=O)/C=C/c2ccc(C)cc2)C1 (stereo not given)
2. CCOC(=O)CCC(NC(=O)c1ccc(CNc2nc3cc(N)cc(N)c3nc2-c2ccccc2)cc1)C(=O)OCC (stereo not given)

Return:
1. 4.49 µM (inactive)
2. > 100 µM (inactive)

Could you report GI50 for every entry in the following list?
1. N#Cc1nc2cc(Cl)ccc2nc1N1CCN(c2ccc([N+](=O)[O-])cc2)CC1
2. Cc1ccc(NC(=S)NNC(=O)c2cc(-c3ccccc3)nc3ccccc23)cc1C
3. C=C1C(=O)C23C(O)CC4C(C)(C)CCC(O)C4(C)C2CC(OC(C)=O)C1[C@H]3O (stereo not given in full)
4. CCSC(=O)/C=C1\CN(C(=O)OC(C)(C)C)C1C(=O)OC(C)(C)C (stereo not given)
5. C=C1C(=O)O[C@H]2C[C@@]3(C)[C@H](O)CCC(=C)[C@@H]3[C@@H](OC(C)=O)[C@H]12
6. CC1C(c2ccc3c(c2)OCO3)c2cc3c(cc2OC1N1CCCC1)OCO3 (stereo not given)

Return:
1: > 100 µM (inactive); 2: 18.7 µM (inactive); 3: 11.4 µM (inactive); 4: 4.94 µM (inactive); 5: 16.5 µM (inactive); 6: 32.9 µM (inactive)

Could you report GI50 for every entry in the following list?
1. O=C(O)c1ccc(NCc2nc3cc4ccccc4cc3[nH]2)cc1
2. Cc1nn(-c2ccccc2)c2nc3ccc(Cl)cc3c(-c3ccccc3)c12
3. Nc1n[nH]c(N)n1
4. C=C(C)[C@@]1(O)CCCC[C@@H]1CC(Sc1ccccc1)Sc1ccccc1

Return:
["> 100 µM (inactive)", "> 100 µM (inactive)", "8510 µM (inactive)", "16.3 µM (inactive)"]

Could you report GI50 for every entry in the following list?
1. Cc1noc(NS(=O)(=O)c2ccc(NC(=O)c3ccc4nc5ccccc5c(Nc5ccc(S(=O)(=O)Nc6onc(C)c6C)cc5)c4c3)cc2)c1C
2. CS[C@]12[C@@H]3C(=O)N(C)C(=O)[C@@H]3[C@](C)(C(=O)N1C)C(=O)N2c1ccccc1
3. COc1ccc(Oc2nc3ccc(C(F)(F)F)cc3nc2-c2ccccc2)cc1

Return:
1: > 100 µM (inactive); 2: > 100 µM (inactive); 3: > 100 µM (inactive)

Numbers sourced from ChEMBL document CHEMBL1201862.
